- experiment-notes: in vivo
- condition-description: mouse, in vivo, po, 5 mg/kg
- Method: In the first round of the optimization campaign, we prepared single-point modifications changing any of the four regions in 1 (Figure 1) while leaving the other regions constant. In the following stages of the optimization campaign, additional East, West, and South moieties were also utilized, combining the best structural elements of the first single-point modification round. For the optimization, in vitro ADME properties and solubility of selected compounds were measured. […]
experimental-readout: Cmax (ng/mL)
Give bare numbers, in ng/mL.

-- ask Which Cmax reading was recorded for the compound "N#Cc1ccc2c(c1)[nH]c(=O)n2[C@H]1C[C@H](c2nnc(-c3ccncn3)n2-c2ccccc2Cl)C1" ?
-- reply 124

###

- experiment-notes: microsomal stability, mouse liver microsomes
- Type: in vitro ADME
- condition-description: pH 7.4
- Description: Test compounds in DMSO (10 mM) were further diluted to 100 μM in acetonitrile. […] The supernatant was transferred to a 96-well plate and analyzed by LCMS (Vanquish Horizon UHPLC equipped with a diode array detector coupled to a Q Exactive focus hybrid quadrupole-Orbitrap mass spectrometer). The metabolic stability is evaluated by plotting the natural logarithm of the percentage test compound remaining versus time and performing linear regression.
experimental-readout: microsomal CLint at 0.75 h, 1 µM

-- ask Which microsomal CLint at 0.75 h, 1 µM reading was recorded for the molecule N#Cc1ccc2c(c1)[nH]c(=O)n2C12CC(c3nnc(-c4ccncn4)n3-c3ccccc3Cl)(C1)C2 [compound 19] ?
-- reply 256 µL/min/mg

###

- experiment-notes: microsomal stability, human liver microsomes
- Format: in vitro ADME
- condition-description: pH 7.4
experimental-readout: microsomal CLint at 1 μM
Include the unit right after the number.

-- ask Which microsomal CLint at 1 μM reading was recorded for the molecule "N#Cc1ccc2c(c1)[nH]c(=O)n2[C@H]1C[C@H](c2nnc(-c3ccncn3)n2-c2ccccc2Cl)C1" ?
-- reply 242 µL/min/mg

###

For each of the compounds below, state its pIC50.
- system-tested: TNKS2 (Homo sapiens, UniProt Q9H2K2)
- Sequence (Q9H2K2 873-1162): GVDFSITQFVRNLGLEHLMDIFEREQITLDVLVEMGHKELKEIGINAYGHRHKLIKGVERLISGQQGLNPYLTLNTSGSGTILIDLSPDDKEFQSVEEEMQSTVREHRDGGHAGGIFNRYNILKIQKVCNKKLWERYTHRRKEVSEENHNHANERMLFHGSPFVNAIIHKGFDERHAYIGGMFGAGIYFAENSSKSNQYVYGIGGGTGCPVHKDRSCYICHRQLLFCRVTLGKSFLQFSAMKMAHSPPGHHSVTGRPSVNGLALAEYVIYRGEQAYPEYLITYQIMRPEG
Answers are plain numbers, as −log10 of the molar value.

# count of solved cases: 2
INSERT INTO measurements (compound, experimental_readout, value_measured) VALUES
  ('N#Cc1ccc2c(c1)[nH]c(=O)n2C12CC(c3nnc(-c4ccncn4)n3-c3ccccc3Cl)(C1)C2 [compound 19]', 'pIC50', 8.44),
  ('N#Cc1ccc2c(c1)oc(=O)n2[C@H]1C[C@H](c2nnc(-c3ccncn3)n2-c2ccccc2Cl)C1 [compound 18]', 'pIC50', 7.32);

Here is another compound to look at.
-- ask Which pIC50 reading was recorded for the compound Cn1c(=O)n([C@H]2C[C@H](c3nnc(-c4ccncn4)n3-c3ccccc3Cl)C2)c2ccc(C#N)cc21 [compound 17] ?
-- reply 7.47
